Hey, just so you know, these numbers are from the supplement of paper PMC10567573.

B1: GOLPH3 (parent)
chain: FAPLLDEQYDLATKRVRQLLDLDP

- Variants of: B1
- Experimental Details: protein stability index of a GFP-peptide fusion (GPS, HEK-293T) (PSI 1-6); higher = more stable;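 further: lentivirally expressed fusions sorted by FACS into six bins by GFP to DsRed ratio, PSI derived from sequencing read proportions per bin multiplied by bin number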
- Study Conditions: c terminus: a fixed tail appended
Listed next: entries and their corresponding protein stability index.
Quantity Measured: protein stability index

- Residue Change: "R15S"
  Measured Result: 1.8
- Residue Change: "L11W"
  Measured Result: 2.82
- Residue Change: "Q8Y"
  Measured Result: 2.33
- Residue Change: "D6P"
  Measured Result: 2.81
- Residue Change: "R17C"
  Measured Result: 2.14
- Residue Change: "Q18R"
  Measured Result: 1.44
- Residue Change: "E7C"
  Measured Result: 1.98
- Residue Change: "P3I"
  Measured Result: 1.68
- Residue Change: "V16K"
  Measured Result: 1.54
- Residue Change: "P3M"
  Measured Result: 1.78
- Residue Change: "L19F"
  Measured Result: 1.63
- Residue Change: "D6T"
  Measured Result: 1.76
- Residue Change: "P24L"
  Measured Result: 2.11
- Residue Change: "D10M"
  Measured Result: 2.24
- Residue Change: "L22W"
  Measured Result: 1.83
- Residue Change: "T13F"
  Measured Result: 1.96
- Residue Change: "T13P"
  Measured Result: 2.22
- Residue Change: "P3C"
  Measured Result: 2.44
- Residue Change: "A2C"
  Measured Result: 1.85
- Residue Change: "E7L"
  Measured Result: 1.55
- Residue Change: "F1M"
  Measured Result: 3.58
- Residue Change: "R15T"
  Measured Result: 1.76
- Residue Change: "L4V"
  Measured Result: 3.17
- Residue Change: "L22I"
  Measured Result: 2.45
- Residue Change: "Y9P"
  Measured Result: 2.59
- Residue Change: "D21G"
  Measured Result: 2.29
- Residue Change: "R17G"
  Measured Result: 2.45
- Residue Change: "R15G"
  Measured Result: 1.74
- Residue Change: "Q18S"
  Measured Result: 2.11
- Residue Change: "L20M"
  Measured Result: 2.3
- Residue Change: "R15Y"
  Measured Result: 1.51
- Residue Change: "P24E"
  Measured Result: 2.46
- Residue Change: "D6A"
  Measured Result: 2.38
- Residue Change: "L22Y"
  Measured Result: 2.29
- Residue Change: "E7V"
  Measured Result: 1.89
- Residue Change: "T13N"
  Measured Result: 1.9
- Residue Change: "P24F"
  Measured Result: 3.43
- Residue Change: "F1H"
  Measured Result: 4
- Residue Change: "L20E"
  Measured Result: 2.76
- Residue Change: "D10K"
  Measured Result: 1.98
- Residue Change: "P3A"
  Measured Result: 2.34
- Residue Change: "L20A"
  Measured Result: 2.92
- Residue Change: "L22S"
  Measured Result: 2.29
- Residue Change: "R17S"
  Measured Result: 2.61
- Residue Change: "E7F"
  Measured Result: 1.91
- Residue Change: "L5N"
  Measured Result: 2.97
